target-of-assay: CCK Receptor (Pancreas) (Rattus norvegicus)
Construct: The whole pancreas was dissected free of fat tissue and was homogenized; from tissue; host or cells: rat whole pancreas, homogenate membranes
Sequence (P30551 whole entry): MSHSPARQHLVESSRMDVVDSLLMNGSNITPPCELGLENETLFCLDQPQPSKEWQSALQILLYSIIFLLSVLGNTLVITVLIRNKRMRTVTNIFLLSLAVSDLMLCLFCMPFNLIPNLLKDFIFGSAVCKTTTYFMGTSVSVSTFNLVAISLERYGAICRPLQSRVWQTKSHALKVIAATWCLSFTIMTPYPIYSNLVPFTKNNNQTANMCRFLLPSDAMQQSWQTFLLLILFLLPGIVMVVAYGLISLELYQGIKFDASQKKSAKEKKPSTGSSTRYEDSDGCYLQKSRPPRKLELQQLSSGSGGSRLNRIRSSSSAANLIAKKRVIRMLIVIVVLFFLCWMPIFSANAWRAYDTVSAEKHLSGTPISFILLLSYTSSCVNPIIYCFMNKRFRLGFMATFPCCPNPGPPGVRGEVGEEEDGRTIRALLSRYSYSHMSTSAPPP
experiment-description: biochemical
Type: binding, Male Sprague-Dawley rats
condition-description: rat pancreas membranes, 125I-CCK-8 50 pM, 25° C., 2 hours; read-out: IC50, 125I-CCK Pancreas
observable: pIC50
Numbers only, as −log10 of the molar value.

Examples from the recorded data:
[[record]]
molecule = "CN1C(=O)[C@H](NC(=O)Nc2cccc(Cc3nnn[nH]3)c2)N=C(c2ccccc2)c2ccccc21"
observable = "pIC50"
value_reported = 5.74

[[record]]
molecule = "COP(=O)(Nc1cccc(NC(=O)N[C@@H]2N=C(c3ccccc3)c3ccccc3N(C)C2=O)c1)OC"
observable = "pIC50"
value_reported = 6.52

[[record]]
molecule = "CC(C)CN1C(=O)C(NC(=O)Nc2cccc(-c3nnn[nH]3)c2)N=C(c2ccccc2F)c2ccccc21 (racemic)"
observable = "pIC50"
value_reported = 6.82

[[record]]
molecule = "CC(=O)NS(=O)(=O)c1cccc(NC(=O)N[C@@H]2N=C(c3ccccc3)c3ccccc3N(CC3CC3)C2=O)c1"
observable = "pIC50"
value_reported = 5.34


Turning now to a further record.
[Q] pIC50 of O=C(Nc1cccc(-c2noc(=O)[nH]2)c1)N[C@@H]1N=C(c2ccccc2)c2ccccc2N(CC2CC2)C1=O on CCK Receptor (Pancreas) (Rattus norvegicus)?
[A] 6.72
